Entries and their TGI values follow.
system: T-47D breast; assay: NCI tumour cell line growth inhibition, 48 h
Give just the number in µM; leave the unit off.

For orientation, consider the following solved cases.
                        structure_as_smiles  assay_value
0  Nc1c(C(=O)Nc2cccc3ccccc23)sc2nc3c(cc12)CCCC3         90.5
1  CC[C@](O)(C(=O)O)c1cc2n(c(=O)c1CO)Cc1cc3ccccc3nc1-2       0.0755

Form field: TGI recorded for COc1cc(C/C=C/c2ccccc2)c(OC)cc1O with T-47D breast (enter value) 35.3

###

tested on: SK-MEL-2 melanoma; test: NCI tumour cell line growth inhibition, 48 h
READOUT: TGI

For orientation, consider the following solved cases.
>>> df
                                molecule  assay_value
0               O=C(/C=C/c1cccs1)c1ccsc1     > 100 µM
1   CCN(CC)C(=S)SNCCc1ccc(S(N)(=O)=O)cc1    > 86.7 µM
2  Cc1ccccc1NC(=S)N=Nc1c(O)[nH]c2ccccc12     > 100 µM

What TGI value was documented for this molecule, Cn1c2ccccc2c2cc(-c3ccccc3)c3c(c21)C(=O)C=CC3=O ? 49.9 µM

###

Entries and their GI50 values follow.
test system: RXF 393 renal; experiment: NCI tumour cell line growth inhibition, 48 h

What GI50 value was documented for this compound, CN(C)CCCNC(=O)c1cc2c3ccccc3[nH]c2c2ncccc12 ? 13.2 µM

What GI50 value was documented for this compound, O=C(Cc1ccccc1)Nc1nnc(CCSCCc2nnc(NC(=O)Cc3ccccc3)s2)s1 ? 17.9 µM

What GI50 value was documented for this compound, Cn1cc(-c2csc(-c3cn(CCN4CCOCC4)c4ccc(F)cc34)n2)c2cccnc21 ? 2.58 µM

What GI50 value was documented for this compound, Cc1sc2nc(-c3ccccn3)c(/C=N/N=C(N)N)n2c1C ? 5.56 µM

What GI50 value was documented for this compound, CC(=O)OCCC/C(=C\c1ccc2ccccc2c1)[N+](=O)[O-] ? 1.94 µM

###

Entries and their log10 TGI values follow.
test system: A498 renal; experiment: NCI tumour cell line growth inhibition, 48 h
Hey, these are logged values: log10 of TGI, µM being the unit before logging.

What log10 TGI value was documented for this molecule, COc1ccc(C(=O)Nc2ncc(Cc3ccc(F)cc3)s2)cc1 ? -1.05

What log10 TGI value was documented for this molecule, BrP(NC1CCCCCC1)(c1ccccc1)(c1ccccc1)c1ccccc1 ? 0.86

What log10 TGI value was documented for this molecule, COCC(=O)[C@]1(O)Cc2c(O)c3c(c(O)c2[C@@H](OC2CC(N)C(O)C(C)O2)C1)C(=O)c1c(OC)cccc1C3=O (stereo not given in full) ? -0.20

What log10 TGI value was documented for this molecule, CC1=C[C@H]2c3c(c(O)c(O)c4oc5cc(O)cc(O)c5c(=O)c34)[C@H](c3cc(O)c(O)c4oc5cc(O)cc(O)c5c(=O)c34)[C@H]2C(C)(C)C1 ? 0.67

What log10 TGI value was documented for this molecule, NC(=O)Nc1ccc2ncnc(Nc3ccc(Cl)cc3)c2c1 ? 1.21

What log10 TGI value was documented for this molecule, O=C(c1ccc(Cl)cc1)N(Cc1cccnc1)C(=S)N(Cc1cccnc1)C(=O)c1ccc(Cl)cc1 ? 1.96

What log10 TGI value was documented for this molecule, O=[N+]([O-])c1cccc2nc3ccccc3c(NCCC[N+]3([O-])CCCCC3)c12 ? 0.39

What log10 TGI value was documented for this molecule, COc1cc(N(C)C)ccc1/C=c1/c2ccccc2n2c1cc(-c1ccccc1)[n+]2C ? 0.83

What log10 TGI value was documented for this molecule, O=C([C@H](O)[C@@H](O)c1ccc(Br)cc1)C12CC3CC(CC(C3)C1)C2 ? 1.51

What log10 TGI value was documented for this molecule, COc1cc(C(=O)/C=C/c2c(-c3ccc(F)cc3)nc3sccn23)cc(OC)c1OC ? 0.79
